experiment_summary: Hydrophobicity, Log P of the compound
Format: physicochemical
assay_setup: octanol/water
property_label: logP

Which logP value is on record for Cc1ccc(-n2cnn(CCCN3CCN(CC(O)(Cn4cncn4)c4ccc(F)cc4F)CC3)c2=O)cc1[N+](=O)[O-] (racemic) ?
2.11

Which logP value is on record for O=c1n(-c2ccc(F)c(Cl)c2)cnn1CCCN1CCN(CC(O)(Cn2cncn2)c2ccc(F)cc2F)CC1 (racemic) ?
2.65

Which logP value is on record for CC(C)(C)c1ccc(-n2cnn(CCCN3CCN(CC(O)(Cn4cncn4)c4ccc(F)cc4F)CC3)c2=O)cc1 (racemic) ?
3.59

Which logP value is on record for O=c1n(-c2ccccc2F)cnn1CCCN1CCN(CC(O)(Cn2cncn2)c2ccc(F)cc2F)CC1 (racemic) ?
2.02

Which logP value is on record for O=c1n(-c2ccc(Cl)c(Cl)c2)cnn1CCCN1CCN(CC(O)(Cn2cncn2)c2ccc(F)cc2F)CC1 (racemic) ?
3.17

Which logP value is on record for Cc1cccc(-n2cnn(CCCN3CCN(CC(O)(Cn4cncn4)c4ccc(F)cc4F)CC3)c2=O)c1 (racemic) ?
2.28

Which logP value is on record for Cc1ccc(-n2cnn(CCCN3CCN(CC(O)(Cn4cncn4)c4ccc(F)cc4F)CC3)c2=O)cc1 (racemic) ?
2.28

Which logP value is on record for Cc1cc(C)cc(-n2cnn(CCCN3CCN(CC(O)(Cn4cncn4)c4ccc(F)cc4F)CC3)c2=O)c1 (racemic) ?
2.65

Which logP value is on record for O=c1n(-c2ccc(I)cc2)cnn1CCCN1CCN(CC(O)(Cn2cncn2)c2ccc(F)cc2F)CC1 (racemic) ?
2.57

Which logP value is on record for O=c1n(-c2ccc(Br)cc2)cnn1CCCN1CCN(CC(O)(Cn2cncn2)c2ccc(F)cc2F)CC1 (racemic) ?
2.61

Which logP value is on record for O=c1n(-c2ccc(Cl)cc2)cnn1CCCN1CCN(CC(O)(Cn2cncn2)c2ccc(F)cc2F)CC1 (racemic) ?
2.54

Which logP value is on record for Cc1ccc(C)c(-n2cnn(CCCN3CCN(CC(O)(Cn4cncn4)c4ccc(F)cc4F)CC3)c2=O)c1 (racemic) ?
2.65

Which logP value is on record for O=c1n(-c2cccc(Cl)c2)cnn1CCCN1CCN(CC(O)(Cn2cncn2)c2ccc(F)cc2F)CC1 (racemic) ?
2.54

Which logP value is on record for O=c1n(-c2ccccc2)cnn1CCCN1CCN(CC(O)(Cn2cncn2)c2ccc(F)cc2F)CC1 (racemic) ?
1.92

Which logP value is on record for Cc1ccc(-n2cnn(CCCN3CCN(CC(O)(Cn4cncn4)c4ccc(F)cc4F)CC3)c2=O)cc1Cl (racemic) ?
2.91

Which logP value is on record for CCOc1ccc(-n2cnn(CCCN3CCN(CC(O)(Cn4cncn4)c4ccc(F)cc4F)CC3)c2=O)cc1 (racemic) ?
2.25

Which logP value is on record for Cc1cccc(C)c1-n1cnn(CCCN2CCN(CC(O)(Cn3cncn3)c3ccc(F)cc3F)CC2)c1=O (racemic) ?
2.65

Which logP value is on record for Cc1ccc(-n2cnn(CCCN3CCN(CC(O)(Cn4cncn4)c4ccc(F)cc4F)CC3)c2=O)cc1C (racemic) ?
2.65

Which logP value is on record for O=c1n(-c2ccc(F)cc2)cnn1CCCN1CCN(CC(O)(Cn2cncn2)c2ccc(F)cc2F)CC1 (racemic) ?
2.02

Which logP value is on record for Cc1ccc(-n2cnn(CCCN3CCN(CC(O)(Cn4cncn4)c4ccc(F)cc4F)CC3)c2=O)c(C)c1 (racemic) ?
2.65
